Data provenance: the supplement of paper PMC10126150

- Test system: ATP;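 further: ATP exposure 15 min at 22 °C before imaging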
- assay_protocol: switch fluorescence ratio, 500 uM ATP over buffer (Cy3 cluster intensity, sum of 5 cycles each) (fold (ratio)); higher = stronger signal-on switching upon ATP binding; sequences stand for … in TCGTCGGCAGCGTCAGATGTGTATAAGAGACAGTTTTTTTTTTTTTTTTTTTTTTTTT…TC
- test_parameters: aptamer strand: ATP DNA aptamer (quencher-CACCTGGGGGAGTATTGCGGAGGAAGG + anchor), 100 nM annealed; ATP concentration: 500 uM
measured_attribute: switch fluorescence ratio
Give bare numbers.

Some solved entries appear below for comparison.
>  <residue_string>
AGTGGGCTTT

>  <switch fluorescence ratio>
0.996

$$$$
>  <residue_string>
ATAGGATTTA

>  <switch fluorescence ratio>
0.989

$$$$
>  <residue_string>
TATTTTTT

>  <switch fluorescence ratio>
1.02

$$$$
>  <residue_string>
TGGGATCCAT

>  <switch fluorescence ratio>
0.972

$$$$
>  <residue_string>
ATTCTTAGTA

>  <switch fluorescence ratio>
0.986

$$$$

List switch fluorescence ratio for every entry below, keeping the order given.
1. CGGTTTTTGT
2. CTTCGGCCTT
3. TGGCGCCACT
4. AGTGAGTCTG
5. TGCTAGCCGG
6. TTTAAGTCTC
7. CATTTATTTT
8. AGTAGTTGCC

Given back:
[0.999, 0.976, 0.976, 0.995, 1, 1, 1.01, 1.01]

List switch fluorescence ratio for every entry below, keeping the order given.
1. GACTATTGAA
2. TCTTTGGGGT
3. TAGCTTGGGG
4. CGCTCGGGTT

Given back:
1. 1
2. 1.01
3. 0.999
4. 1

List switch fluorescence ratio for every entry below, keeping the order given.
1. TTGAATCGAC
2. GTGATATTGT
3. TTTATTGACG
4. TTTGGTTGG
5. TCATTATTCT
6. TTACGCTACT

Given back:
1.08
1.01
0.886
1.01
0.97
1.8

List switch fluorescence ratio for every entry below, keeping the order given.
1. GGGATCTGAA
2. GATGGAAGGG
3. TTAAAATATC
4. ATGTGAATTG
5. GAGTTCAGGA
6. ACAGCTGTTT

Given back:
0.969
0.974
0.999
1.01
1
0.998
